Recorded melting point values for a group of compounds are listed next.

Here is how some compounds turned out for melting point.
>  <structure>
COc1ccc(Nc2ncc3ccc(=O)n(C4CCCC4)c3n2)cn1

>  <melting point>
181 to 182 °C

$$$$
>  <structure>
Cc1c(Br)c(=O)n(C2CCCC2)c2nc(Nc3ccc(N4CCOCC4)nc3)ncc12

>  <melting point>
254 to 256 °C

$$$$
>  <structure>
Cc1c(Br)c(=O)n(C2CCCC2)c2nc(Nc3ccc(N4CCNCC4)nc3)ncc12

>  <melting point>
290 °C

$$$$
>  <structure>
CC(=O)c1c(C)c2cnc(Nc3ccc(N4CCOCC4)nc3)nc2n(C2CCCC2)c1=O

>  <melting point>
224 to 226 °C

$$$$
>  <structure>
CC(=O)c1c(C)c2cnc(Nc3ccc(N4CCNCC4)nc3)nc2n(C2CCCC2)c1=O

>  <melting point>
125 °C

$$$$

Turning to the following compound.
# input Given the compound CC(C)n1c(=O)ccc2cnc(Nc3cccnc3)nc21 , what is its reported melting point?
# output 156 to 158 °C

----------
# assayed_target: CDK4/Cyclin D (Homo sapiens, UniProt P11802)
# Sequence (P11802 whole entry, species assumed): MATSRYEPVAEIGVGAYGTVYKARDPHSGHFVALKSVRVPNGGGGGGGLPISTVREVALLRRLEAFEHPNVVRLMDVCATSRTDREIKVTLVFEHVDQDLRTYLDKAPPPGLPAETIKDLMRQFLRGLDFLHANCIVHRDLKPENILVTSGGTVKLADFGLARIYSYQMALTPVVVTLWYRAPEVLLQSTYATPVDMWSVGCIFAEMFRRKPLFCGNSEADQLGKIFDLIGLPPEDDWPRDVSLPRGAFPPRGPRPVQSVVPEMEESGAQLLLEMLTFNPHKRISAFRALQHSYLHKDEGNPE
# Sequence (P24385 whole entry partner, species assumed): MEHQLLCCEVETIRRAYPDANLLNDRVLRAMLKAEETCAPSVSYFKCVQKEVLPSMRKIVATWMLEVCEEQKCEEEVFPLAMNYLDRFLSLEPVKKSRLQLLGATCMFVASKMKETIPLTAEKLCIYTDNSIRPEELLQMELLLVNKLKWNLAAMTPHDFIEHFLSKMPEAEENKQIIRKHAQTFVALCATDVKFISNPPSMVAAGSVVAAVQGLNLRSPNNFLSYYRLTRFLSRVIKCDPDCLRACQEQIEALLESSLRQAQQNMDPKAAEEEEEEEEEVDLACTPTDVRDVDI
# measurement_protocol: Assay for Inhibition of CDK4/Cyclin D
# condition_label: 20 ng CDK4, retinoblastoma protein substrate, 25 μM ATP, 25° C. 15 minutes
# Procedure: To determine the inhibitory potency and selectivity of compounds of the present invention against CDK4 and related kinases, compounds were evaluated in standard assays routinely used to measure inhibition of cyclin-dependent kinase enzymes and other protein kinases (see for example D. W. Fry et al., J. Biol. Chem. 2001, 276, 16617-16623). The assays were carried out as described below. Assay for Inhibition of CDK4/Cyclin D […]
pIC50: −log10 of the molar value. Where a name gives a salt, the structure may show the parent alone.
measured_attribute: pIC50

>  <molecule>
O=c1c(Br)cc2cnc(Nc3ccc(N4CCNCC4)nc3)nc2n1C1CCCC1 [Example 3, hydrochloride salt]

>  <result_number>
7.92

$$$$
>  <molecule>
CC(=O)c1c(C)c2cnc(Nc3ccc(N4CCNCC4)nc3)nc2n(C2CCCC2)c1=O

>  <result_number>
8.52

$$$$
>  <molecule>
Cc1c(Br)c(=O)n(C2CCCC2)c2nc(Nc3ccc(N4CCNCC4)nc3)ncc12

>  <result_number>
7.66

$$$$
>  <molecule>
Cc1c(Br)c(=O)n(C2CCCC2)c2nc(Nc3ccc(N4CCOCC4)nc3)ncc12

>  <result_number>
7.00

$$$$

A. COc1ccc(Nc2ncc3ccc(=O)n(C4CCCC4)c3n2)cn1
B. CC(C)n1c(=O)ccc2cnc(Nc3cccnc3)nc21
# input Would you kindly point out which of A and B has the smaller pIC50 figure? Indicate which entry you chose by stating its label.
# output B
(B: 6.27, A: 7.09)

----------
# assayed_target: CDK2/cyclin A (Homo sapiens, UniProt P24941)
# measurement_protocol: Assay for Inhibition of CDK2/Cyclin A
# Assay type: biochemical
# condition_label: 20 ng CDK2/cyclin A, retinoblastoma protein substrate, [32P]ATP, 25° C. 15 minutes
pIC50: −log10 of the molar value. Where a name gives a salt, the structure may show the parent alone.
measured_attribute: pIC50

>  <compound>
CC(C)n1c(=O)ccc2cnc(Nc3cccnc3)nc21 [Example 1]

>  <pIC50>
6.63

$$$$
>  <compound>
CC(=O)c1c(C)c2cnc(Nc3ccc(N4CCNCC4)nc3)nc2n(C2CCCC2)c1=O [Example 7]

>  <pIC50>
6.59

$$$$
>  <compound>
Cc1c(Br)c(=O)n(C2CCCC2)c2nc(Nc3ccc(N4CCNCC4)nc3)ncc12 [Example 6]

>  <pIC50>
5.49

$$$$
>  <compound>
COc1ccc(Nc2ncc3ccc(=O)n(C4CCCC4)c3n2)cn1 [Example 2]

>  <pIC50>
7.54

$$$$

A. O=c1c(Br)cc2cnc(Nc3ccc(N4CCNCC4)nc3)nc2n1C1CCCC1 [Example 3, hydrochloride salt]
B. Cc1c(Br)c(=O)n(C2CCCC2)c2nc(Nc3ccc(N4CCOCC4)nc3)ncc12 [Example 4]
# input Kindly identify the item with the lower pIC50 figure among these two: A and B Mark your answer with the label of the selected entry.
# output B
(B: 5.99, A: 6.72)
